Tested on: SARS-CoV-2
Test: SARS-CoV-2 IFA against N protein in Vero E6 cells
Assay type: cell-based
Settings: read-out: SARS-CoV-2 EC50 IFA; Vero E6 cells, MOI 0.01, 2 d.p.i., N protein
Readout label: EC50 (nM)
Express it in nM; write the number only.

The molecule listed as COc1cc2c3c(c4cc(OC)c(OC)cc4c2cc1OC)CN1CCCC1C3 (stereo not shown) shows EC50 equal to 76.8

---

Assay: in vitro
Conditions: human
Measured CC50 of individual entries
Express it in nM; write the number only.

[
  {
    "Compound": "CO[C@H]1C[C@H](O[C@H]2CC[C@@]3(C)[C@H](CC[C@@H]4[C@@H]3CC[C@]3(C)[C@@H](C5=CC(=O)OC5)[C@@H](OC(C)=O)C[C@]43O)C2)O[C@@H](C)[C@@H]1O [Oleandrin, oleandrin]",
    "CC50, nM": 211
  },
  {
    "Compound": "C[C@H]1O[C@@H](O[C@H]2[C@@H](O)C[C@H](O[C@H]3[C@@H](O)C[C@H](O[C@H]4CC[C@@]5(C)[C@H](CC[C@@H]6[C@@H]5CC[C@]5(C)[C@@H](C7=CC(=O)OC7)CC[C@]65O)C4)O[C@@H]3C)O[C@@H]2C)C[C@H](O)[C@@H]1O [Digitoxin, digitoxin]",
    "CC50, nM": 909
  }
]

The compound listed as C[C@@H]1O[C@@H](O[C@H]2C[C@@H](O)[C@]3(CO)[C@H]4[C@H](O)C[C@]5(C)[C@@H](C6=CC(=O)OC6)CC[C@]5(O)[C@@H]4CC[C@]3(O)C2)[C@H](O)[C@H](O)[C@H]1O [Ouabain, ouabain] shows CC50 equal to 504

The compound listed as C[C@H]1O[C@@H](O[C@H]2[C@@H](O)C[C@H](O[C@H]3[C@@H](O)C[C@H](O[C@H]4CC[C@@]5(C)[C@H](CC[C@@H]6[C@@H]5C[C@@H](O)[C@]5(C)[C@@H](C7=CC(=O)OC7)CC[C@]65O)C4)O[C@@H]3C)O[C@@H]2C)C[C@H](O)[C@@H]1O [Digoxin, digoxin] shows CC50 equal to 1400

---

Test: in vitro
Conditions: human
Counter-ions that a name gives are not always drawn.
Readout label: CC50 at 72 h (µM)
Express it in µM; write the number only.

The compound listed as C[C@]12CCC(=NOCCN)C[C@@H]1C(=O)C[C@@H]1[C@@H]2CC[C@]2(C)C(=O)CC[C@@H]12 [Istaroxime, istaroxime hydrochloride] shows CC50 at 72 h equal to 32

---

Assay: HCT-8 cell viability (MTS)
Conditions: human
Readout label: CC50 at 72 h (nM)
Express it in nM; write the number only.

The molecule listed as C[C@]12CC[C@H](O)C[C@H]1CC[C@@H]1[C@@H]2CC[C@]2(C)[C@@H](c3ccc(=O)oc3)CC[C@]12O [Bufalin, bufalin, reference compound] shows CC50 at 72 h equal to 900
